biological target: LTB4 receptor (Homo sapiens); construct: The reaction was started by addition of a thoroughly mixed PMN cell suspension (1.6×10^6 cells); endogenous in cells; host or cells: human polymorphonuclear leukocytes (PMN), whole-cell suspension; assay: Binding inhibition against 3H-LTB4 on the human polymorphonuclear leukocyte (PMN); details: percentage of inhibition of specific 3H-LTB4 (4nM) binding to human PMN, 0° C. for 20 min; formula (IB) compounds, Table 18
Sequence (Q15722 whole entry): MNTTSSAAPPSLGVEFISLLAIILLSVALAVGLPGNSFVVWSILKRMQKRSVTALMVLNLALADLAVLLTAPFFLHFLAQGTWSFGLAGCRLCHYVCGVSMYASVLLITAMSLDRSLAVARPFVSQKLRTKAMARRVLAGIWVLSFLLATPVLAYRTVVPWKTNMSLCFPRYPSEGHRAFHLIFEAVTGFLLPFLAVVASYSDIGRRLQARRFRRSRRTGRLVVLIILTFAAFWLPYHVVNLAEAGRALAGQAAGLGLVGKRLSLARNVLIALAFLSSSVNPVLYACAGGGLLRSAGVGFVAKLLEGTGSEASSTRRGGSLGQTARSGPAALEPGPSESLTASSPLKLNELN
quantity: inhibition (%)

[[record]]
molecule = "C=CCN(CC(=O)NC(C(=O)OCC)C(=O)OCC)C(=O)/C(C)=C/c1ccc(C(=O)Oc2ccc(C(=N)N)cc2)cc1"
measured_on = "LTB4 receptor (Homo sapiens)"
measured_result = 76.7

[[record]]
molecule = "CCOC(=O)CC[C@H](NC(=O)C(=Cc1ccc(C(=O)Oc2ccc(C(=N)N)cc2)cc1)C(=O)OCC)C(=O)OCC [Example 2(r)]"
measured_on = "LTB4 receptor (Homo sapiens)"
measured_result = 80.1

[[record]]
molecule = "CCOC(=O)CN(CCOC)C(=O)/C(C)=C/c1ccc(C(=O)Oc2ccc(C(=N)N)cc2)cc1"
measured_on = "LTB4 receptor (Homo sapiens)"
measured_result = 87.3

[[record]]
molecule = "CCOC(=O)CN(C(=O)/C(C)=C/c1ccc(C(=O)Oc2ccc(C(=N)N)cc2)cc1)[C@@H](CC(C)C)C(=O)OCC"
measured_on = "LTB4 receptor (Homo sapiens)"
measured_result = 85.5

[[record]]
molecule = "C=CCC(NC(=O)/C(C)=C/c1ccc(C(=O)Oc2ccc(C(=N)N)cc2)cc1)(C(=O)OCC)C(=O)OCC"
measured_on = "LTB4 receptor (Homo sapiens)"
measured_result = 85.8

[[record]]
molecule = "N=C(N)c1ccc(OC(=O)c2ccc(CN3CCC(c4ccccc4)CC3)cc2)cc1"
measured_on = "LTB4 receptor (Homo sapiens)"
measured_result = 89.7

[[record]]
molecule = "N=C(N)C1=Cc2ccc(OC(=O)c3ccc(C(=O)N(Cc4ccccc4)c4ccccc4)cc3)cc2CC1"
measured_on = "LTB4 receptor (Homo sapiens)"
measured_result = 92

[[record]]
molecule = "CCOC(=O)CC[C@H](NC(=O)/C=C/C=C/c1ccc(C(=O)Oc2ccc(C(=N)N)cc2)cc1)C(=O)OCC"
measured_on = "LTB4 receptor (Homo sapiens)"
measured_result = 89.2

[[record]]
molecule = "CCOP(=O)(/C=C/c1ccc(C(=O)Oc2ccc(C(=N)N)cc2)cc1)OCC"
measured_on = "LTB4 receptor (Homo sapiens)"
measured_result = 52

[[record]]
molecule = "CCOC(=O)CC(NC(=O)/C(C)=C/c1ccc(C(=O)Oc2ccc(C(=N)N)cc2)cc1)(C(=O)OCC)C(=O)OCC"
measured_on = "LTB4 receptor (Homo sapiens)"
measured_result = 97.7


###

biological target: trypsin (derived from bovine pancreas) (Bos taurus); construct: a solution of 80 mU/ml trypsin (derived from bovine pancreas) (50 μl); from tissue; host or cells: bovine pancreas; assay: Inhibitory activity on trypsin; assay type: biochemical; conditions: bovine pancreas trypsin, BAPNA substrate, 30° C., pH 8.0; read-out: inhibitory activity on trypsin IC50
quantity: IC50 (nM)

[[record]]
compound = "CCOC(=O)CC[C@H](NC(=O)c1ccc(/C=C(\\C)C(=O)Oc2ccc(C(=N)N)cc2)cc1)C(=O)OCC"
measured_on = "trypsin (derived from bovine pancreas) (Bos taurus)"
quantity = "IC50"
measured_result = 160

[[record]]
compound = "N=C(N)c1ccc(OC(=O)c2ccc(CN3CCC(c4ccccc4)CC3)cc2)cc1"
measured_on = "trypsin (derived from bovine pancreas) (Bos taurus)"
quantity = "IC50"
measured_result = 130

[[record]]
compound = "CCOC(=O)CN(Cc1ccccc1)Cc1ccc(C(=O)Oc2ccc(C(=N)N)cc2)cc1"
measured_on = "trypsin (derived from bovine pancreas) (Bos taurus)"
quantity = "IC50"
measured_result = 170

[[record]]
compound = "CCOC(=O)CC[C@H](NC(=O)C(=Cc1ccc(C(=O)Oc2ccc(C(=N)N)cc2)cc1)C(=O)OCC)C(=O)OCC [Example 2(r)]"
measured_on = "trypsin (derived from bovine pancreas) (Bos taurus)"
quantity = "IC50"
measured_result = 160

[[record]]
compound = "CCOC(=O)CC(NC(=O)/C(C)=C/c1ccc(C(=O)Oc2ccc(C(=N)N)cc2)cc1)(C(=O)OCC)C(=O)OCC"
measured_on = "trypsin (derived from bovine pancreas) (Bos taurus)"
quantity = "IC50"
measured_result = 100


[1] CCOC(=O)/C=C/CC(NC(=O)/C(C)=C/c1ccc(C(=O)Oc2ccc(C(=N)N)cc2)cc1)(C(=O)OCC)C(=O)OCC
[2] CCOC(=O)CN(C(=O)c1ccc(C(=O)Oc2ccc3c(c2)CCC(C(=N)N)=C3)cc1)c1ccccc1
Kindly identify which of 1 and 2 has the larger recorded IC50 value. Give the chosen item's label as your response. 2

[a] C=CCN(CC(=O)OCC)C(=O)c1ccc(C(=O)Oc2ccc(/C=C/C(=N)N)cc2)cc1
[b] CCOC(=O)[C@H](COC(=O)c1ccccc1)NC(=O)/C(C)=C/c1ccc(C(=O)Oc2ccc(C(=N)N)cc2)cc1 [Example 2(e)]
Record comparison, field IC50: mark the lower of a and b . # reply format: chosen label a

###

target: trypsin (derived from bovine pancreas) (Bos taurus, UniProt P00760); construct: a solution of 80 mU/ml trypsin (derived from bovine pancreas) (50 μl); from tissue; host or cells: bovine pancreas; experiment: Inhibitory activity on trypsin; assay type: biochemical
Sequence (P00760 24-246): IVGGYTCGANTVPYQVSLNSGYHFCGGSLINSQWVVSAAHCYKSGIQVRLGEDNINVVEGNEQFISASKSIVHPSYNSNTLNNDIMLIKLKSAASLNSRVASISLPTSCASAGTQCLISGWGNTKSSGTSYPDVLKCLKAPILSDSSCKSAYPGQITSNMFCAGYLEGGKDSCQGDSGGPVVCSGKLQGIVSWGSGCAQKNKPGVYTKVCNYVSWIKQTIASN
quantity: IC50 (nM)
Field: numeric (nM). Do not append units.

Dear colleague, I am looking for the recorded IC50 of the following compound: CCOP(=O)(/C=C/c1ccc(C(=O)Oc2ccc(C(=N)N)cc2)cc1)OCC 140

###

molecular target: LTB4 receptor (Homo sapiens); construct: The reaction was started by addition of a thoroughly mixed PMN cell suspension (1.6×10^6 cells); endogenous in cells; host or cells: human polymorphonuclear leukocytes (PMN), whole-cell suspension; experiment: Binding inhibition against 3H-LTB4 on the human polymorphonuclear leukocyte (PMN); conditions: percentage of inhibition of specific 3H-LTB4 (4nM) binding to human PMN, 0° C. for 20 min; formula (IA) compounds, Table 17
quantity: inhibition (%)

[[record]]
smiles_entry = "C=CCN(CCCC(=O)OCC)C(=O)/C(C)=C/c1ccc(C(=O)Oc2ccc(C(=N)N)cc2)cc1"
measured_result = 96.5

[[record]]
smiles_entry = "C=CCN(CC(=O)OCC)C(=O)/C(C)=C/c1ccc(C(=O)Oc2ccc(C(=N)N)cc2)cc1"
measured_result = 91.5

[[record]]
smiles_entry = "CCOC(=O)CCN(CC(=O)OCC)C(=O)/C(C)=C/c1ccc(C(=O)Oc2ccc(C(=N)N)cc2)cc1"
measured_result = 87

[[record]]
smiles_entry = "CCOC(=O)CC[C@H](NC(=O)/C=C(\\C)c1ccc(C(=O)Oc2ccc(C(=N)N)cc2)cc1)C(=O)OCC"
measured_result = 63.7

[[record]]
smiles_entry = "C/C(=C\\c1ccc(C(=O)Oc2ccc(C(=N)N)cc2)cc1)C(=O)N(CC(=O)O)Cc1ccccc1"
measured_result = 90.8

[[record]]
smiles_entry = "COCCCN(C(=O)/C(C)=C/c1ccc(C(=O)Oc2ccc(C(=N)N)cc2)cc1)C(C(=O)O)C(=O)O"
measured_result = 61.2

[[record]]
smiles_entry = "C=CCN(CCCC(=O)O)C(=O)/C(C)=C/c1ccc(C(=O)Oc2ccc(C(=N)N)cc2)cc1"
measured_result = 83.5


###

target: LTB4 receptor (Homo sapiens); construct: The reaction was started by addition of a thoroughly mixed PMN cell suspension (1.6×10^6 cells); endogenous in cells; host or cells: human polymorphonuclear leukocytes (PMN), whole-cell suspension; assay: Binding inhibition against 3H-LTB4 on the human polymorphonuclear leukocyte (PMN); settings: percentage of inhibition of specific 3H-LTB4 (4nM) binding to human PMN, 0° C. for 20 min; formula (IB) compounds, Table 18
quantity: inhibition (%)

Field: example entries. Status: answers known.
[[record]]
compound = "C=CCN(CC(=O)OCC)C(=O)COc1ccc(C(=O)Oc2ccc(C(=N)N)cc2)cc1"
result_units = "%"
measured_result = 79.7

[[record]]
compound = "CCOC(=O)CC[C@H](NC(=O)c1ccc(/C=C(\\C)C(=O)Oc2ccc(C(=N)N)cc2)cc1)C(=O)OCC"
result_units = "%"
measured_result = 89.6

[[record]]
compound = "CCOC(=O)CN(Cc1ccccc1)Cc1ccc(C(=O)Oc2ccc(C(=N)N)cc2)cc1"
result_units = "%"
measured_result = 67.8

[[record]]
compound = "CCOC(=O)/C=C/CC(NC(=O)/C(C)=C/c1ccc(C(=O)Oc2ccc(C(=N)N)cc2)cc1)(C(=O)OCC)C(=O)OCC"
result_units = "%"
measured_result = 85.4

[[record]]
compound = "CCOC(=O)CCN(CCC(C)C)C(=O)/C(C)=C/c1ccc(C(=O)Oc2ccc(C(=N)N)cc2)cc1 [Example 2(z)]"
result_units = "%"
measured_result = 92.8


[a] C=CCN(CC(=O)OCC)C(=O)c1ccc(/C(C)=C/C(=O)Oc2ccc(C(=N)N)cc2)cc1
[b] C=CCN(CC(=O)O)C(=O)/C(C)=C/c1ccc(C(=O)Nc2ccc(C(=N)N)cc2)cc1 [Example 2(ee)]
Endpoint returns whichever of a and b has the numerically higher inhibition. Please identify the chosen entry by its label. a
(a: 98%, b: 65.3%)

Values compiled from patent US6583177B2.
